Measured on: T1, Drosophila melanogaster capa GPCR, capaR (Drosophila melanogaster, UniProt Q8ITC7 1-477)
T1 sequence (looked up): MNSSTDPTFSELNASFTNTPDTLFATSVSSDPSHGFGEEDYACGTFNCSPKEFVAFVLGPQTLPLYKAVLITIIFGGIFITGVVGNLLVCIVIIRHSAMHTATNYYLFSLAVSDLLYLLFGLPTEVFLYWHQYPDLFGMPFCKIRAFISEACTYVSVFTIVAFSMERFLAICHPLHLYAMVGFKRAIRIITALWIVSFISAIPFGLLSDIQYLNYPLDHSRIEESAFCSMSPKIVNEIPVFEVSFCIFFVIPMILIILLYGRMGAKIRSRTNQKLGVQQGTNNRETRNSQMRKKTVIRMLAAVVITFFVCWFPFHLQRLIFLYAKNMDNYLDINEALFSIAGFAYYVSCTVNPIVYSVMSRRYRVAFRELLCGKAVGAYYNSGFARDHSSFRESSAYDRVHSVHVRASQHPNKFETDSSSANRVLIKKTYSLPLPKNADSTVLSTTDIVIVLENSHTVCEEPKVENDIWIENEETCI
Method summary: cell-based or functional assay
Square brackets hold non-standard residues; d marks the D form. NMeL = CN[C@@H](CC(C)C)C(=O)O; NMeV = CN[C@H](C(=O)O)C(C)C; NMeA = CN[C@@H](C)C(=O)O; Aib = CC(C)(N)C(=O)O
Recorded metric: CapaR Ca^2+ Agonist response at 10^-7 M

Some entries whose results are on file:
H-LY[Aib]FARV-NH2 (SMILES CC(C)C[C@H](N)C(=O)N[C@@H](Cc1ccc(O)cc1)C(=O)NC(C)(C)C(=O)N[C@@H](Cc1ccccc1)C(=O)N[C@@H](C)C(=O)N[C@@H](CCCNC(=N)N)C(=O)N[C@H](C(N)=O)C(C)C) [AH387 (H-LY-Aib-FARV-NH2)] = 17 % of native Capa1 activity
H-LYAFAR[NMeV]-NH2 (SMILES CC(C)C[C@H](N)C(=O)N[C@@H](Cc1ccc(O)cc1)C(=O)N[C@@H](C)C(=O)N[C@@H](Cc1ccccc1)C(=O)N[C@@H](C)C(=O)N[C@@H](CCCNC(=N)N)C(=O)N(C)[C@H](C(N)=O)C(C)C) [AH380 (H-LYAFAR-(Me)V-NH2)] = 14 % of native Capa1 activity
H-[NMeL]YAFARV-NH2 (SMILES CN[C@@H](CC(C)C)C(=O)N[C@@H](Cc1ccc(O)cc1)C(=O)N[C@@H](C)C(=O)N[C@@H](Cc1ccccc1)C(=O)N[C@@H](C)C(=O)N[C@@H](CCCNC(=N)N)C(=O)N[C@H](C(N)=O)C(C)C) [AH383 (H-(Me)L-YAFARV-NH2)] = 26 % of native Capa1 activity
H-LY[NMeA]FARV-NH2 (SMILES CC(C)C[C@H](N)C(=O)N[C@@H](Cc1ccc(O)cc1)C(=O)N(C)[C@@H](C)C(=O)N[C@@H](Cc1ccccc1)C(=O)N[C@@H](C)C(=O)N[C@@H](CCCNC(=N)N)C(=O)N[C@H](C(N)=O)C(C)C) [AH382 (H-LY-(Me)A-FARV-NH2)] = 36 % of native Capa1 activity

Task: Entry H-LYAFARV-NH2 [AH188 (H-LYAFARV-NH2)] has what CapaR Ca^2+ Agonist response at 10^-7 M?
Result: 64 % of native Capa1 activity
